Values from patent US5055448A

# Tested on: antidiuretic response to arginine vasopressin
# Design: species or system rats
# condition_parameters: rat, in vivo
# Description: Activity as antidiuretic agonists was determined by intravenous injection of the compounds being evaluated in ethanol-anesthesized water-loaded rats in accordance with Sawyer, Endocrinology, vol. 63 (1958) at 694. Antagonism of the antidiuretic response to subsequent injections of arginine vasopressin was tested by the method of Sawyer et al., Science, vol. 212 (1981) at 49. Antagonistic potencies were determined and expressed as "effective doses" and pA2 values. […]
Square brackets hold non-standard residues; d marks the D form. Peptide text beside a SMILES is read from it. * marks the point of attachment. Acetyl(1-adamantyl) = O=C(CC12CC3CC(CC(C3)C1)C2)*; Abu = CC[C@H](N)C(=O)O
// reported Antiantidiuretic pA2 for each item listed
readout_name: Antiantidiuretic pA2

compound	test_result
CCOc1ccc(C[C@@H](NC(=O)CC23CC4CC(CC(C4)C2)C3)C(=O)N[C@@H](Cc2ccccc2)C(=O)N[C@H](C(=O)N[C@@H](CC(N)=O)C(=O)N[C@@H](CC)C(=O)N2CCC[C@H]2C(=O)N[C@@H](CCCNC(=N)N)C(=O)NCC(N)=O)C(C)C)cc1 ({Acetyl(1-adamantyl)}-[dY](Et)FVN[Abu]PRG-NH2)	7.50
CCOc1ccc(C[C@@H](NC(=O)CC23CC4CC(CC(C4)C2)C3)C(=O)N[C@@H](Cc2ccccc2)C(=O)N[C@H](C(=O)N[C@@H](CC(N)=O)C(=O)N[C@@H](CC)C(=O)N2CCC[C@H]2C(=O)N[C@@H](CCCNC(=N)N)C(=O)N[C@@H](C)C(N)=O)C(C)C)cc1 ({Acetyl(1-adamantyl)}-[dY](Et)FVN[Abu]PRA-NH2)	6.55
CCOc1ccc(C[C@@H](NC(=O)CC23CC4CC(CC(C4)C2)C3)C(=O)N[C@@H](Cc2ccccc2)C(=O)N[C@H](C(=O)N[C@@H](CC(N)=O)C(=O)N[C@@H](CCCCN)C(=O)N2CCC[C@H]2C(=O)N[C@@H](CCCNC(=N)N)C(N)=O)C(C)C)cc1 ({Acetyl(1-adamantyl)}-[dY](Et)FVNKPR-NH2)	7.81
